- tested-target: HLA-A*02:01 (Homo sapiens, UniProt P04439, D140Y/D185E/D98H/E176V/E277Q/G131W/G231S/I119V/I121R/I166T/I218V/L300P/L318F/N151K/N90K/P208A/P217A/Q86G/Q94H/R138H/R169H/T345S)
- assay-details: MHC binding assay (UV-ligand exchange, β2m ELISA)
- condition-notes: MHC class I binding score; binding to HLA-A*02:01 ranged by peptide exchange yield (UV-ligand exchange, β2m ELISA)
quantity-name: Peptide exchange

# example entries with known answers
>>> reported_result("32 (GLDIITNKV; listed as Homo sapiens) [compound 32]")
"+++ (>50 = +++)"
>>> reported_result("175 (VLDSVDVRL; listed as Homo sapiens) [compound 175]")
"++++ (>75% = ++++)"
>>> reported_result("47 (ALDSDPVGL; listed as Homo sapiens) [compound 47]")
"+++ (>50 = +++)"
>>> reported_result("191 (YLDKMNNNI; listed as Homo sapiens) [compound 191]")
"++++ (>75% = ++++)"
>>> reported_result("27 (TLWYVPLSL; listed as Homo sapiens) [compound 27]")
"++++ (>75% = ++++)"
>>> reported_result("193 (ALDEPTTNL; listed as Homo sapiens) [compound 193]")
"+++ (>50 = +++)"
>>> reported_result("227 (FLLEQEKTQAL; listed as Homo sapiens) [compound 227]")
"++++ (>75% = ++++)"
>>> reported_result("225 (VLFGAVITGA; listed as Homo sapiens) [compound 225]")
"++++ (>75% = ++++)"
>>> reported_result("68 (FLAEAARSL; listed as Homo sapiens) [compound 68]")
"++++ (>75% = ++++)"
>>> reported_result("164 (ALFFQLVDV; listed as Homo sapiens) [compound 164]")
"++ (>20% = ++)"

Entry 94 (LLDAFSIKL; listed as Homo sapiens) [compound 94] : reported Peptide exchange = ?
+++ (>50 = +++)

Follow-up entry: 10 (KMTQYITEL; listed as Homo sapiens) [compound 10]
++++ (>75% = ++++)

What do we get for 61 (KLSVHVTAL; listed as Homo sapiens) [compound 61] ?
++++ (>75% = ++++)

Cool, now 87 (IIDPPLHGQLL; listed as Homo sapiens) [compound 87]
++ (>20% = ++)

Similarly, 24 (SLVAILHLL; listed as Homo sapiens) [compound 24] ?
+++ (>50 = +++)

Would you mind doing 150 (KLFPSPLQTL; listed as Homo sapiens) [compound 150] as well?
++++ (>75% = ++++)

Lookup 176 (TLYEQEIEV; listed as Homo sapiens) [compound 176]
++++ (>75% = ++++)

Please do the same for 1 (FLDVKELML; listed as Homo sapiens) [compound 1] as well.
++++ (>75% = ++++)

What do you have for 71 (SLDEVAVSL; listed as Homo sapiens) [compound 71] ?
++++ (>75% = ++++)

Here is the next substance: 91 (ILLDRLFSV; listed as Homo sapiens) [compound 91]
++++ (>75% = ++++)

* * *

- tested-target: HLA-A*02:01 (Homo sapiens, UniProt P04439, D140Y/D185E/D98H/E176V/E277Q/G131W/G231S/I119V/I121R/I166T/I218V/L300P/L318F/N151K/N90K/P208A/P217A/Q86G/Q94H/R138H/R169H/T345S)
- assay-details: MHC binding assay (UV-ligand exchange, β2m ELISA)
- condition-notes: MHC class I binding score; binding to HLA-A*02:01 ranged by peptide exchange yield (UV-ligand exchange, β2m ELISA)
- Excerpt: Candidate peptides for T cell based therapies according to the present invention were further tested for their MHC binding capacity (affinity). The individual peptide-MHC complexes were produced by UV-ligand exchange, where a UV-sensitive peptide is cleaved upon UV-irradiation, and exchanged with the peptide of interest as analyzed. Only peptide candidates that can effectively bind and stabilize the peptide-receptive MHC molecules prevent dissociation of the MHC complexes. […]
quantity-name: Peptide exchange

>>> reported_result("5 (ILDEGHILQL; listed as Homo sapiens) [compound 5]")
"++++ (>75% = ++++)"
>>> reported_result("53 (ILDEEKFNV; listed as Homo sapiens) [compound 53]")
"+++ (>50 = +++)"
>>> reported_result("194 (TLDDIMAAV; listed as Homo sapiens) [compound 194]")
"+++ (>50 = +++)"
>>> reported_result("119 (SLGLGFISRV; listed as Homo sapiens) [compound 119]")
"+++ (>50 = +++)"
>>> reported_result("101 (NVDENVAEL; listed as Homo sapiens) [compound 101]")
"++ (>20% = ++)"

Would you kindly look at the next entry?
Which Peptide exchange is listed for 221 (SLLPTEQPRL; listed as Homo sapiens) [compound 221] ?
+++ (>50 = +++)

* * *

- tested-target: HLA-A*02:01 (Homo sapiens, UniProt P04439, D140Y/D185E/D98H/E176V/E277Q/G131W/G231S/I119V/I121R/I166T/I218V/L300P/L318F/N151K/N90K/P208A/P217A/Q86G/Q94H/R138H/R169H/T345S)
- assay-details: MHC binding assay (UV-ligand exchange, β2m ELISA)
- condition-notes: MHC class I binding score; binding to HLA-A*02:01 ranged by peptide exchange yield (UV-ligand exchange, β2m ELISA)
quantity-name: Peptide exchange

# example entries with known answers
>>> reported_result("163 (RLMANPEALKI; listed as Homo sapiens) [compound 163]")
"+++ (>50 = +++)"
>>> reported_result("108 (TVIRPLPGL; listed as Homo sapiens) [compound 108]")
"++ (>20% = ++)"
>>> reported_result("109 (VIDDLIQKL; listed as Homo sapiens) [compound 109]")
"++ (>20% = ++)"
>>> reported_result("79 (AVDNILLKL; listed as Homo sapiens) [compound 79]")
"+++ (>50 = +++)"
>>> reported_result("199 (AIHTAILTL; listed as Homo sapiens) [compound 199]")
"++ (>20% = ++)"
>>> reported_result("132 (FLDASGAKL; listed as Homo sapiens) [compound 132]")
"++++ (>75% = ++++)"

Any idea what Peptide exchange was measured for 33 (SLYSYFQKV; listed as Homo sapiens) [compound 33] ?
++++ (>75% = ++++)

Queued: 114 (VVDDIVSKL; listed as Homo sapiens) [compound 114]
++ (>20% = ++)

* * *

- tested-target: HLA-A*02:01 (Homo sapiens, UniProt P04439, D140Y/D185E/D98H/E176V/E277Q/G131W/G231S/I119V/I121R/I166T/I218V/L300P/L318F/N151K/N90K/P208A/P217A/Q86G/Q94H/R138H/R169H/T345S)
- assay-details: MHC binding assay (UV-ligand exchange, β2m ELISA)
- condition-notes: MHC class I binding score; binding to HLA-A*02:01 ranged by peptide exchange yield (UV-ligand exchange, β2m ELISA)
quantity-name: Peptide exchange

Known Peptide exchange results, listed for orientation:
>>> reported_result("56 (ILDELVKSL; listed as Homo sapiens) [compound 56]")
"+++ (>50 = +++)"
>>> reported_result("46 (VMSSTLYTV; listed as Homo sapiens) [compound 46]")
"++++ (>75% = ++++)"
>>> reported_result("133 (ALDPAYTTL; listed as Homo sapiens) [compound 133]")
"+++ (>50 = +++)"
>>> reported_result("203 (FLNEDISKL; listed as Homo sapiens) [compound 203]")
"+++ (>50 = +++)"
>>> reported_result("232 (KILPDLNTV; listed as Homo sapiens) [compound 232]")
"++++ (>75% = ++++)"
>>> reported_result("26 (KIEDLIKYL; listed as Homo sapiens) [compound 26]")
"+++ (>50 = +++)"

I am curious: what Peptide exchange value has been reported for 174 (TLLEGLTEL; listed as Homo sapiens) [compound 174] ?
+++ (>50 = +++)

Queued: 62 (LLDTTQKYL; listed as Homo sapiens) [compound 62]
++++ (>75% = ++++)

* * *

- tested-target: HLA-A*02:01 (Homo sapiens, UniProt P04439, D140Y/D185E/D98H/E176V/E277Q/G131W/G231S/I119V/I121R/I166T/I218V/L300P/L318F/N151K/N90K/P208A/P217A/Q86G/Q94H/R138H/R169H/T345S)
- assay-details: MHC binding assay (UV-ligand exchange, β2m ELISA)
- condition-notes: MHC class I binding score; binding to HLA-A*02:01 ranged by peptide exchange yield (UV-ligand exchange, β2m ELISA)
quantity-name: Peptide exchange

Below, 5 substances whose answers are already recorded.
>>> reported_result("39 (ALPPPPASI; listed as Homo sapiens) [compound 39]")
"+++ (>50 = +++)"
>>> reported_result("173 (ALDDIIYRA; listed as Homo sapiens) [compound 173]")
"+++ (>50 = +++)"
>>> reported_result("116 (LMDETMKEL; listed as Homo sapiens) [compound 116]")
"++++ (>75% = ++++)"
>>> reported_result("161 (GLCDSIITI; listed as Homo sapiens) [compound 161]")
"++++ (>75% = ++++)"
>>> reported_result("123 (LLGEGIPSA; listed as Homo sapiens) [compound 123]")
"++++ (>75% = ++++)"

GET /values?readout=Peptide exchange&item= 140 (RLEAYLARV; listed as Homo sapiens) [compound 140]
+++ (>50 = +++)

Let us now turn to 146 (GVGPVPARA; listed as Homo sapiens) [compound 146]
+++ (>50 = +++)
